Reference source: patent US20200255503A1

Molecular target: natural Fel d1 (cat (Felis domesticus)) (UniProt P30438)
Experiment: SPR, mAb captured, nFel d1 injected, 25 C
measuredMetric: kon (M⁻¹ s⁻¹)
Numbers only, in M⁻¹ s⁻¹.

Consider the following illustrative entries.
{"binder": "H4H2597B (antibody, human IgG4, V domains shown) VH: EVQLVESGGGLVQPGGSLRLSCAVSGFTFSNYAMNWVRQAPGKGLEWVSVISDSGRSTYYADSVKGRFTISRDNSKNTLYLQMNSLRAEDTAVYFCAKRYNWNLHYFDYWGQGTTVTVSS VL: EIVLTQSPDFQSVTPKEKVTITCRASQSIGGSLHWYQQKPDQSPKLLIKYASQSFSGVPSRFSGSGSGTDFTLTINSLEAEDAATYYCLQSSSLRTFGQGTKVEIKR", "unitsText": "M⁻¹ s⁻¹", "kon": "2.31e+06"}
{"binder": "H4H2606B (antibody, human IgG4, V domains shown) VH: EVQLVESGGGLVKPGGSLRLSCAASGFTFSDYYMNWIRQAPGKGLEWVSYISSSGNSIYYADSVKGRFTISRDNAKNSLFLQMSSLRAEDTAVYYCARDGRYNDRRRGYYWGQGTLVTVSS VL: EIVMTQSPDFQSVTPKEKVTITCRASQSIGSSLHWYQQKPDQSPKLLIKYASQSFSGVPSRFSGSGSGTDFTLTINSLEAEDAATYYCLQSSSLRTFGQGTKVEIKR", "unitsText": "M⁻¹ s⁻¹", "kon": 924000}

Consider the binder H4H2590S (antibody, human IgG4, V domains shown) VH: QVQLVESGGGLVKPGGSLRLSCAASGFTFSDYYMNWIRQAPGKGLEWISYISSGGSTTYYADSVKGRFTISRDNAKNSLYLQMNSLRAEDTAVYYCARDGKYNTSPGDYWGQGTLVTVSS VL: EIVLTQSPDFQSVTPKEKVTITCRASQSIGSSLHWYQQKPDQSPKLLIKYASQSFSGVPSRFSGSGSGTDFTLTINSLEAEDAATYYCLQSSSLRTFGQGTKVDIK and give its measured kon.
1.23e+06
